system under test: UT-B (Homo sapiens)
assay overview: RBC lysis assay (human RBCs, acetamide-loaded)
Lab note: compare EC50 with 1000 nM, writing criterion met if less and criterion not met if equal or more.

Solved entries (count: 5):
[[record]]
record_smiles = "NC(=O)CSc1oc(-c2ccco2)nc1S(=O)(=O)c1ccc(Br)cc1"
system_under_test = "UT-B (Homo sapiens)"
class = "criterion met"

[[record]]
record_smiles = "NC(=O)CSc1oc(-c2ccc(F)cc2)nc1S(=O)(=O)c1ccc(F)cc1"
system_under_test = "UT-B (Homo sapiens)"
class = "criterion not met"

[[record]]
record_smiles = "Cc1ccc(S(=O)(=O)c2nc(-c3ccccc3Cl)oc2N2CCOCC2)cc1"
system_under_test = "UT-B (Homo sapiens)"
class = "criterion not met"

[[record]]
record_smiles = "Cc1ccc(-c2nc(S(=O)(=O)c3ccccc3)c(N3CCCCCC3)o2)cc1"
system_under_test = "UT-B (Homo sapiens)"
class = "criterion not met"

[[record]]
record_smiles = "Cc1ccc(-c2nc(S(=O)(=O)c3ccccc3)c(SCC(N)=O)o2)cc1"
system_under_test = "UT-B (Homo sapiens)"
class = "criterion not met"


Next, consider the following compound.
Dear colleague, could you confirm whether EC50 of CSc1[nH]c(-c2ccc(C)cc2)nc1S(=O)(=O)c1ccccc1 falls below 1000 nM? Thanks. criterion not met

---

system under test: UT-B (Homo sapiens, UniProt Q13336)
Sequence (Q13336 whole entry): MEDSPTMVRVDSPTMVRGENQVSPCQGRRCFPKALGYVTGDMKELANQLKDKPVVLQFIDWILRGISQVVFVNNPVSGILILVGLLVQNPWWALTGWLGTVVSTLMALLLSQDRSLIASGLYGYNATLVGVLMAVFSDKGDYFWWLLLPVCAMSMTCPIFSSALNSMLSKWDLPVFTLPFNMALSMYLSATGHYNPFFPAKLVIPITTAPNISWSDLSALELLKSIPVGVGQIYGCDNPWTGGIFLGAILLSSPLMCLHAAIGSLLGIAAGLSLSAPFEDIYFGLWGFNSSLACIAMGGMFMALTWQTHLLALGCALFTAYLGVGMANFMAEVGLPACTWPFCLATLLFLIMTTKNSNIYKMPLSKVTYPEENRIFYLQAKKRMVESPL
assay overview: RBC lysis assay (human RBCs, acetamide-loaded)
pEC50: −log10 of the molar value.
Mark false for pEC50 values under 6, and true for everything at or above.

Hi, just wondering whether O=S(=O)(c1ccccc1)c1nc(-c2ccc(F)cc2)oc1N1CCCCCC1 shows pEC50 of 6 or higher. false

Hi, just wondering whether Cc1ccc(-c2nc(S(=O)(=O)c3ccc(Br)cc3)c(SCC(N)=O)o2)cc1 shows pEC50 of 6 or higher. true

Hi, just wondering whether Cc1ccc(S(=O)(=O)c2nc(-c3ccccc3)oc2SCC(N)=O)cc1 shows pEC50 of 6 or higher. true

Hi, just wondering whether Cc1ccc(S(=O)(=O)c2nc(-c3cccs3)oc2SCC(N)=O)cc1 shows pEC50 of 6 or higher. true

Hi, just wondering whether NC(=O)CSc1oc(-c2ccco2)nc1S(=O)(=O)c1ccc(Cl)cc1 shows pEC50 of 6 or higher. true

Hi, just wondering whether COc1ccccc1-c1nc(S(=O)(=O)c2ccccc2)c(N2CCCCCC2)o1 shows pEC50 of 6 or higher. false

Hi, just wondering whether O=S(=O)(c1ccccc1)c1nc(-c2ccccc2F)oc1N1CCOCC1 shows pEC50 of 6 or higher. false

Hi, just wondering whether CSc1oc(-c2ccco2)nc1S(=O)(=O)c1ccc(Cl)cc1 shows pEC50 of 6 or higher. false

---

system under test: UT-B (Homo sapiens, UniProt Q13336)
assay overview: RBC lysis assay (human RBCs, acetamide-loaded)
measured property: EC50 (nM)
The figure you give is taken to be in nM; do not add the unit.

[[record]]
record_smiles = "NC(=O)CSc1oc(-c2ccccc2)nc1S(=O)(=O)c1ccccc1"
measured_property = "EC50"
observed_measurement = 1000

[[record]]
record_smiles = "Cc1ccc(-c2nc(S(=O)(=O)c3ccc(Cl)cc3)c(SCC(N)=O)o2)cc1"
measured_property = "EC50"
observed_measurement = 1000


Given the entry Cc1ccc(S(=O)(=O)c2nc(-c3ccco3)oc2SCC(N)=O)cc1 , report its measured EC50. 1000

From: patent US8394788B2
